Tested on: MDA-MB-231 breast
assay.text: NCI tumour cell line growth inhibition, 48 h
Reported TGI is given for each of the following molecules.
Could you give me the number in µM? Just the number is fine.

O=C1C=CC(=O)c2c(O)c(NCCO)c(Cl)c(O)c21 : 6.37
Clc1ccc(C2CC(c3cccc(Nc4ccncc4)c3)=NN2c2ccccc2)cc1 (configuration not stated) : 3.21
CN1CN(c2ccccc2)C2(CCN(C3Nc4ccccc4O3)CC2)C1=O (configuration not stated) : 44.6
O=C(/C=C\c1ccsc1)c1ccccc1 : 18.5
CC(C)(C)CNCCCNc1ccc(Cl)cc1 : 82.3

Give the reported TGI for CC(C)C1CC(CO)(CNc2nc(N)nc(Cl)c2/C=N\O)C1 (configuration not stated) (system: MDA-MB-231 breast). 31.6

How about this molecule: COc1ccc2nc3cc(Cl)ccc3c(NCCNCC(O)CO)c2c1 (configuration not stated) 5.83

How about this molecule: O=C(CC(Cc1ccccc1)c1ccc(Oc2ccccc2)cc1)Nc1cccc(Cl)c1 (configuration not stated) 53.8

----------
Test system: SF-539 CNS
assay.text: NCI tumour cell line growth inhibition, 48 h
Reported TGI is given for each of the following compounds.
Could you give me the number in µM? Just the number is fine.

CN1CCN(Cc2ccc(NC(=O)c3cncc(C#Cc4c(N)ncc5c(F)cccc45)c3)cc2C(F)(F)F)CC1 : 1.22

Would you kindly look at the next entry?
Give the reported TGI for CC(O)CC(=O)CO[C@H]1[C@H](O)[C@@H](O)[C@@H](O)[C@@H]2NC(=O)c3c(cc4c(c3O)OCO4)[C@H]21 (stereo not given in full) (system: SF-539 CNS). 0.0712

----------
Reported GI50 is given for each of the following compounds.
System: HT29 colon
assay.text: NCI tumour cell line growth inhibition, 48 h

CON=C1C[C@]2(C[C@@H]3C[C@@H](C/C=C(\C)C[C@@H](C)/C=C/C=C4\CO[C@@H]5[C@H](O)C(C)=C[C@@H](C(=O)O3)[C@]45O)O2)O[C@H](/C(C)=C/C(C)C)[C@H]1C : 11100 nM

Would you kindly look at the next entry?
Endpoint output: GI50 of Cc1cc(O[C@@H]2O[C@@H](C)[C@H](O)[C@@H](O)[C@H]2O)c2c3c(c(O[C@@H]4O[C@@H](C)[C@H](O)[C@@H](O)[C@H]4O)cc2c1)C(=O)c1c(O)cccc1C3=O . Value? > 30000 nM

----------
Test system: SK-MEL-5 melanoma
assay.text: NCI tumour cell line growth inhibition, 48 h
Reported GI50 is given for each of the following compounds.

Consider the following illustrative entries.
N.N.N.N.N.N#Cc1nn[n-]n1.[Cl-].[Co+3] : > 100 µM
CC(C)C(=O)Nc1ccc(-c2nc(-c3cccc(OCCN4CCOCC4)c3)c(-c3ccnc(Br)c3)[nH]2)cc1 : 1.79 µM

Endpoint output: GI50 of Cc1cc2c(C(=O)NCC#N)cccc2n1-c1nc2c(c(NCc3ccccc3)n1)CCCC2 . Value? 0.118 µM

How about this compound: O=C(NCCCl)NCCN1c2nc3ccccc3cc2Sc2cc3ccccc3nc21 0.168 µM

How about this compound: O=C(/C=C\c1cc(Br)ccc1O)/C=C/c1cc(Br)ccc1O 0.426 µM

How about this compound: CC(C)(C)[Si](C)(C)OC1[C@@H](O[Si](C)(C)C(C)(C)C)[C@@H](CNC(=O)NC(=O)NC(=O)CCl)O[C@H]1n1cnc2c(NC(=O)Nc3ccccc3)ncnc21 (stereo partly drawn) 8.21 µM

How about this compound: CN1CCN(Cc2ccc(NC(=O)c3cncc(C#Cc4c(N)ncc5c(F)cccc45)c3)cc2C(F)(F)F)CC1 0.841 µM

How about this compound: COc1cc(N2CCN(C(C)C)CC2)ccc1Nc1nc(Nc2ccc(F)cc2C(=O)NCC(O)CO)c2cc[nH]c2n1 (stereo not drawn) 11.4 µM

How about this compound: C[C@@H]1CC[C@H]2[C@@H](C)C(OC/C=C/COC3O[C@@H]4O[C@@]5(C)CC[C@H]6[C@H](C)CC[C@@H]([C@H]3C)[C@@]46OO5)O[C@@H]3O[C@@]4(C)CC[C@@H]1[C@]32OO4 (stereo partly drawn) 0.0491 µM

How about this compound: Cc1ccc(S(=O)(=O)OCC(=O)Nc2ccc(C(=O)O)c(O)c2)cc1 27 µM

How about this compound: CS(=O)(=O)c1ccc2c(c1)C(=O)c1c-2n(CCCBr)c(=O)c2cc([N+](=O)[O-])ccc12 1.91 µM

How about this compound: Cc1cc(O[C@@H]2O[C@@H](C)[C@H](O)[C@@H](O)[C@H]2O)c2c3c(c(O[C@@H]4O[C@@H](C)[C@H](O)[C@@H](O)[C@H]4O)cc2c1)C(=O)c1c(O)cccc1C3=O > 30 µM

How about this compound: COc1cc(-c2cc(-c3cccs3)c(C#N)c(N3CCOCC3)n2)cc(OC)c1OC 5.71 µM

How about this compound: C=C1C[C@@H](O)[C@@H](Br)C(C)(C)[C@]12CCC(C)(Br)C(Cl)C2 (stereo partly drawn) 16.7 µM

How about this compound: COc1ccc(/C(=C/c2ccc3ccccc3c2)c2nn[nH]n2)cc1OC 4.68 µM

How about this compound: Clc1ccc(-c2nc3c(-c4ccccc4)nc(-c4ccccc4)cn3c2-c2ccc(Cl)cc2)cc1 > 100 µM

How about this compound: c1ccc(COCC[P+](c2ccccc2)(c2ccccc2)c2ccccc2)cc1 0.396 µM

How about this compound: CCNC(=O)Oc1ccc(/C(=C(\C)c2ccc(Cl)cc2)c2ccc(OCCN(CC)CC)cc2)cc1 1.75 µM

How about this compound: Nc1c(C(=O)c2ccc(C#CCN3CCOCC3)cc2)cnn1-c1ccc(F)cc1 > 25 µM

How about this compound: C[C@]12CCCN1CC1=NNC(=O)c3cc(F)cc4[nH]c2c1c34 20.7 µM
